target: HLA-A*02:03; assay: IEDB peptide-MHC binding, purified MHC/competitive/fluorescence; filed as Kd, often an IC50 or EC50 that approximates it; bounds were set here for any values at or beyond the usual limits of such assays; conditions: source organism: Human immunodeficiency virus 1
measurement-label: Kd (µM)

ordered-residues	measurement-label	observed-result
LYNTIAVLY	Kd	0.721

----------
target: HLA-B*58:01; assay: IEDB peptide-MHC binding, purified MHC/competitive/radioactivity; filed as Kd, often an IC50 or EC50 that approximates it; bounds were set here for any values at or beyond the usual limits of such assays; settings: source organism: Dengue virus 1 Brazil/97-11/1997
pKd: −log10 of the molar value.

ordered-residues	pKd
KSAAIDGEY	8.18
PATLFVWYFW	5.03

----------
biological target: HLA-A*26:01; test: IEDB peptide-MHC binding, purified MHC/direct/fluorescence; filed as Kd, often an IC50 or EC50 that approximates it; bounds were set here for any values at or beyond the usual limits of such assays; conditions: source organism: Variola virus
measurement-label: Kd (nM)

ordered-residues	observed-result
YTDLTYQSF	233

----------
target: HLA-B*51:01; assay: IEDB peptide-MHC binding, purified MHC/competitive/fluorescence; filed as Kd, often an IC50 or EC50 that approximates it; bounds were set here for any values at or beyond the usual limits of such assays; conditions: source organism: Shigella boydii CDC 3083-94

ordered-residues	Kd
TPAVCGPVI	1.86 µM

----------
biological target: HLA-B*18:01; assay: IEDB peptide-MHC binding, purified MHC/direct/fluorescence; filed as Kd, often an IC50 or EC50 that approximates it; bounds were set here for any values at or beyond the usual limits of such assays; details: source organism: Marburg virus - Musoke, Kenya, 1980
measurement-label: Kd

ordered-residues	measurement-label	observed-result
ARHGEYAPF	Kd	≥ 20 µM

----------
molecular target: HLA-A*02:01; experiment: IEDB peptide-MHC binding, purified MHC/competitive/fluorescence; bounds were set here for any values at or beyond the usual limits of such assays; settings: source organism: Mus musculus
pIC50: −log10 of the molar value.

ordered-residues	target-system	pIC50
ALFSSCPV	HLA-A*02:01	6.54

----------
molecular target: HLA-A*02:02; test: IEDB peptide-MHC binding, purified MHC/competitive/radioactivity; filed as Kd, often an IC50 or EC50 that approximates it; bounds were set here for any values at or beyond the usual limits of such assays; conditions: source organism: Trypanosoma cruzi
Quick reference: Kd of the listed items.
measurement-label: Kd (nM)

ordered-residues	target-system	measurement-label	units	observed-result
GITRPTTLV	HLA-A*02:02	Kd	nM	13700
FVDYNFSLV	HLA-A*02:02	Kd	nM	0.503
HVGRPTTVV	HLA-A*02:02	Kd	nM	1060
FANNKFTLV	HLA-A*02:02	Kd	nM	64.1

----------
biological target: HLA-A*31:01; assay: IEDB peptide-MHC binding, purified MHC/competitive/fluorescence; filed as Kd, often an IC50 or EC50 that approximates it; bounds were set here for any values at or beyond the usual limits of such assays; settings: source organism: Influenza A virus (A/nt/60/1968(H3N2))
pKd: −log10 of the molar value.

ordered-residues	pKd
TIHDRIPHR	7.69

----------
target: HLA-B*46:01; test: IEDB peptide-MHC binding, purified MHC/direct/fluorescence; filed as Kd, often an IC50 or EC50 that approximates it; bounds were set here for any values at or beyond the usual limits of such assays; conditions: source organism: West Nile virus
pKd: −log10 of the molar value.
measurement-label: pKd

ordered-residues	target-system	observed-result
LVKTESWIL	HLA-B*46:01	≤ 4.70
YTMDGEYRL	HLA-B*46:01	≤ 4.70
TVSPSAPTY	HLA-B*46:01	≤ 4.70
AHYEEDVNL	HLA-B*46:01	≤ 4.70
